molecular target: mV1 K831A (Mus musculus, UniProt Q704Y3, K831A); assay: Agonist activation, patch clamp, HEK293T; assay type: cell-based; conditions: mean ± s.e.m., n = 3; read-out: EC50_Capsaicin
Measure Name: pEC50
// scale note: pEC50 = -log10(conc_M); give the bare number

Lab request: please report pEC50 under test system mV1 K831A (Mus musculus, UniProt Q704Y3, K831A) for COc1cc(CNC(=O)CCCC/C=C/C(C)C)ccc1O
6.45

###

target: mouse TRPV1 (mV1) (Mus musculus, UniProt Q704Y3); experiment: Agonist activation, patch clamp, HEK293T; format: cell-based; settings: Supp Table 1 data, replicate 1; read-out: EC50_Capsaicin
Measure Name: pEC50
// scale note: pEC50 = -log10(conc_M); give the bare number

For the compound shown here, COc1cc(CNC(=O)CCCC/C=C/C(C)C)ccc1O , give the reported pEC50.
6.60

###

biological target: mV1_241 (ANAP) (Mus musculus, UniProt Q704Y3, K241X); test: Agonist activation of ANAP-incorporated channel, patch clamp
Measure Name: EC50 (nM)
# number only, unit nM dropped from output

For the compound shown here, COc1cc(CNC(=O)CCCC/C=C/C(C)C)ccc1O [Capsaicin, capsaicin] , give the reported EC50.
290

###

target: mV1 CΔ10 (Phe830-Lys839) (Mus musculus, UniProt Q704Y3); experiment: Agonist activation, patch clamp, HEK293T; assay type: cell-based; conditions: mean ± s.e.m., n = 6; read-out: EC50_Capsaicin
Sequence (Q704Y3 1-829, stated change not applied): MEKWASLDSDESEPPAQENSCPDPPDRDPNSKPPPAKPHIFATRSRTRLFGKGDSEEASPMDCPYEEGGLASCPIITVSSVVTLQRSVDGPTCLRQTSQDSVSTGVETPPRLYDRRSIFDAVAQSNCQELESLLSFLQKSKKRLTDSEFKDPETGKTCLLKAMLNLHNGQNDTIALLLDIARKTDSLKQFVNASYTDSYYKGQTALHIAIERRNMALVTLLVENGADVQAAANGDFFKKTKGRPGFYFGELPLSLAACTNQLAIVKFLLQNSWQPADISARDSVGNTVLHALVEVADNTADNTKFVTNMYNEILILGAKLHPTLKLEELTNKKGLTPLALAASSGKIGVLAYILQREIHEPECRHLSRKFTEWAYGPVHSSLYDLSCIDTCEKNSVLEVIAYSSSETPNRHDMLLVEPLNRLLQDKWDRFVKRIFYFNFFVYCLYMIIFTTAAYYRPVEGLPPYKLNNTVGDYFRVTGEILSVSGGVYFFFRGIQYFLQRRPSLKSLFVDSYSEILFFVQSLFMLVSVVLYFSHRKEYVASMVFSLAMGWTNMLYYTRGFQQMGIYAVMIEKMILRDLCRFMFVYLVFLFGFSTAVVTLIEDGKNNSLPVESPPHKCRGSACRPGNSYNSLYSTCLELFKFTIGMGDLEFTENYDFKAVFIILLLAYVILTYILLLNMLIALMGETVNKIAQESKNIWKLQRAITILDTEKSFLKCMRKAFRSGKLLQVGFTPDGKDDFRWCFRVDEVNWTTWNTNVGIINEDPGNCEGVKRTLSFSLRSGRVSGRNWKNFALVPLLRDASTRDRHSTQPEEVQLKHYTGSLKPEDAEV
Measure Name: pEC50
// scale note: pEC50 = -log10(conc_M); give the bare number

For the molecule shown here, COc1cc(CNC(=O)CCCC/C=C/C(C)C)ccc1O , give the reported pEC50.
6.45

###

biological target: pV1_mC chimera (Ornithorhynchus anatinus); assay: Agonist activation, patch clamp, HEK293T; format: cell-based, platypus / mouse; conditions: mean ± s.e.m., n = 6; read-out: EC50_Capsaicin
Sequence (F7A7B4 1-691, change not shown): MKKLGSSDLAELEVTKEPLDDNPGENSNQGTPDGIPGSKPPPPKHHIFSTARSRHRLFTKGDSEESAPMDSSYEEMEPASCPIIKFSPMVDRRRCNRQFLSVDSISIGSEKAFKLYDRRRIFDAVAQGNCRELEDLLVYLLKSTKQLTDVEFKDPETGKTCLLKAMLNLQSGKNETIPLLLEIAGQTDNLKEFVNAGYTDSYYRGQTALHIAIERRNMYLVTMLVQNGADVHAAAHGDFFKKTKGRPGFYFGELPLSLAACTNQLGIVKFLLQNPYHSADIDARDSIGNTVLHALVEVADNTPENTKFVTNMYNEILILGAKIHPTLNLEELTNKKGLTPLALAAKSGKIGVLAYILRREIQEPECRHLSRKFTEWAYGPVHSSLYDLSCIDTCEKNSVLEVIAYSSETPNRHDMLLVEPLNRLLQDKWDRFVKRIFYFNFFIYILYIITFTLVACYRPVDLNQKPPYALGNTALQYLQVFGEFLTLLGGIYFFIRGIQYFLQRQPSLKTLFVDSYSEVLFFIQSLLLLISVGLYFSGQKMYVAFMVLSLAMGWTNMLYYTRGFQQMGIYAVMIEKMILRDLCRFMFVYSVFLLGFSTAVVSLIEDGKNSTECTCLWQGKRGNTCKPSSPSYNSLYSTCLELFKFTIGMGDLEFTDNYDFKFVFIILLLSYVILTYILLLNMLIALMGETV
Sequence (Q704Y3 688-839 partner): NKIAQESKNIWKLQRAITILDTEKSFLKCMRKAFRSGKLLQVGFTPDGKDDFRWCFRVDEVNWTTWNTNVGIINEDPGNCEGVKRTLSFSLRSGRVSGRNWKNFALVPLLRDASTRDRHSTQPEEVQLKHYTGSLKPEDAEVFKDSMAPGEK
Measure Name: pEC50
// scale note: pEC50 = -log10(conc_M); give the bare number

For the molecule shown here, COc1cc(CNC(=O)CCCC/C=C/C(C)C)ccc1O , give the reported pEC50.
6.51

###

target: mV1 P836A (Mus musculus, UniProt Q704Y3, P836A); test: Agonist activation, patch clamp, HEK293T; format: cell-based; settings: mean ± s.e.m., n = 3; read-out: EC50_Capsaicin
Measure Name: pEC50
// scale note: pEC50 = -log10(conc_M); give the bare number

Lab request: please report pEC50 under test system mV1 P836A (Mus musculus, UniProt Q704Y3, P836A) for COc1cc(CNC(=O)CCCC/C=C/C(C)C)ccc1O
6.50

###

molecular target: mV1 CΔ30 (Glu747-Phe776) (Mus musculus, UniProt Q704Y3, DEL747-776); test: Agonist activation, patch clamp, HEK293T; assay type: cell-based; conditions: mean ± s.e.m., n = 5; read-out: EC50_Capsaicin
Sequence (Q704Y3 with tags, fused parts or gaps DEL747-776): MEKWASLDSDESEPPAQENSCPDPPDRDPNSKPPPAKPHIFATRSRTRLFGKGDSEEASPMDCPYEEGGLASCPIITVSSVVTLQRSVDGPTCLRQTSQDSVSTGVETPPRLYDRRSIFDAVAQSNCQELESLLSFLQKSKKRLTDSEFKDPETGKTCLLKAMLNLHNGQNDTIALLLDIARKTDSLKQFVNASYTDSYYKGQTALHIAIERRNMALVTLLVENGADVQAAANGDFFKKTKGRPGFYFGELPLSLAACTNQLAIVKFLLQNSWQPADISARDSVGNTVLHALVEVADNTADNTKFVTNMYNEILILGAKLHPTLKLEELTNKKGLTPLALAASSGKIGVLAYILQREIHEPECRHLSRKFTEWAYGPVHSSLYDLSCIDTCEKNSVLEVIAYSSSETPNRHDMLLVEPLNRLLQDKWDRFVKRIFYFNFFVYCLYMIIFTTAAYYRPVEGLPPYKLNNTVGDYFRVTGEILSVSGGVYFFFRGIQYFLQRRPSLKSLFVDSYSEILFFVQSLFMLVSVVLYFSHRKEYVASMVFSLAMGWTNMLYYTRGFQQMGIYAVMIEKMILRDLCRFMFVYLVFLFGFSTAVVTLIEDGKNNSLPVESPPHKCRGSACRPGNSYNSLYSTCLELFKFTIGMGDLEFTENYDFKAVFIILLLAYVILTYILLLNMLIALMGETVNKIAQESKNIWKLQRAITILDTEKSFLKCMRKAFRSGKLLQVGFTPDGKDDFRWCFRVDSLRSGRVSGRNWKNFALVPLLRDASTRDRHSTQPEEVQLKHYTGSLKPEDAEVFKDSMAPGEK
Measure Name: pEC50
// scale note: pEC50 = -log10(conc_M); give the bare number

For the compound shown here, COc1cc(CNC(=O)CCCC/C=C/C(C)C)ccc1O , give the reported pEC50.
6.43

###

biological target: mV1 D832A (Mus musculus, UniProt Q704Y3, D832A); assay: Agonist activation, patch clamp, HEK293T; type: cell-based; settings: mean ± s.e.m., n = 3; read-out: EC50_Capsaicin
Measure Name: EC50 (nM)
# number only, unit nM dropped from output

Lab request: please report EC50 under test system mV1 D832A (Mus musculus, UniProt Q704Y3, D832A) for COc1cc(CNC(=O)CCCC/C=C/C(C)C)ccc1O
361
